Test system: DU-145 prostate
Assay: NCI tumour cell line growth inhibition, 48 h
Parameter log10 of TGI: see the listing below.
In our notation, the value equals log10 of TGI in µM.

- chem-smiles: "O=C1N(CN2CCOCC2)CN(CN2CCOCC2)C(=O)N1Cc1ccccc1"
  assay-target: "DU-145 prostate"
  log10 of TGI: 1.81

# return recorded log10 of TGI for entry O=C1NC(N/N=C/c2ccccc2)=N/C1=C\c1cccs1
1.75

# return recorded log10 of TGI for entry CN1C(=O)c2cc([N+](=O)[O-])ccc2[C@H]2C(=O)c3cc4c(cc3[C@H]21)OCO4
1.17

# return recorded log10 of TGI for entry CCN(CC)CCCNc1nc2ccccc2c2c(=O)c3cc(Cl)ccc3sc12
0.62

# return recorded log10 of TGI for entry CC(C)/C(Cl)=N\OC(=O)Nc1ccc(F)c([N+](=O)[O-])c1
1.52

---

System: HOP-62 NSCLC
Test: NCI tumour cell line growth inhibition, 48 h
reported-property: TGI (µM)
Numbers only here, please. The scale is µM.

- molecule: "COCC(=O)OC1CCn2c1nc1c2C(=O)C(C)=C(NC(C)=O)C1=N (stereo not given)"
  TGI / µM: 29.2

# return recorded TGI for entry C=C(CN(C)C)C(=O)c1cc(C)ccc1C
33.8

# return recorded TGI for entry CCCC(=O)Nc1cc([N+](=O)[O-])c([N+](=O)[O-])cc1OC
28.1

---

System: HL-60(TB) leukemia
Experiment: NCI tumour cell line growth inhibition, 48 h
Parameter TGI: see the listing below.
Numbers only here, please. The scale is µM.

Some entries whose results are on file:
- chem-smiles: "O=c1[nH]cc(N(CCCl)CCCl)c(=O)[nH]1"
  TGI [µM]: 36.9
- chem-smiles: "CCN(CC)CCC(=O)c1ccccc1"
  TGI [µM]: 43.9
- chem-smiles: "COc1cc(-c2c3c([nH]c(=O)c2C#N)-c2cc([N+](=O)[O-])ccc2CCC3)cc(OC)c1OC"
  TGI [µM]: 72.7
- chem-smiles: "NC(N)=NS(=O)(=O)c1ccc(Nc2c3ccccc3nc3c(C(=O)NC(CO)(CO)CO)cccc23)cc1"
  TGI [µM]: 71.4
- chem-smiles: "Cc1ccc(-c2nc3c(C(=O)NCCN(C)C)cccc3[nH]2)cc1"
  TGI [µM]: 34.2

Here is another compound to look at.
# return recorded TGI for entry CCCCCCCCCCCCSC(=NC)NC
4.41

---

Tested on: SNB-19 CNS
Test: NCI tumour cell line growth inhibition, 48 h
reported-property: TGI

Some entries whose results are on file:
- molecule: "C#C[C@@]1(O)CCCC2=CC(=O)C[C@]21C"
  TGI: "> 100 µM"
- molecule: "COc1ccc(C(=O)Cn2c(C(C)=O)nc3ccccc32)cc1"
  TGI: "> 100 µM"
- molecule: "COC(=O)C1=COC2OC3/C(=C\\c4ccc(O)c(OC)c4)C(=O)OC34C=CC1C24 (stereo not drawn)"
  TGI: "35.3 µM"
- molecule: "COc1cc(C2CC(c3ccc(Nc4ccnc5cc(Cl)ccc45)cc3)=NN2C=O)cc(OC)c1OC (stereo not drawn)"
  TGI: "> 100 µM"

# return recorded TGI for entry COc1ccc(C(=O)/C=C/c2ccc(OCC(=O)O)cc2)cc1
> 100 µM

# return recorded TGI for entry Cc1ccc(NC(=O)COC(=O)c2cccc3c(=O)c4ccccc4[nH]c23)cc1
> 100 µM

# return recorded TGI for entry O=c1oc2cccnc2n1CCN1CCN(c2ccc(Oc3ccccc3)cc2)CC1
> 100 µM

# return recorded TGI for entry C/C1=C\CC[C@@]2(C)O[C@@H]2C[C@@H]2[C@H](C/C(C)=C/CC1)OC(=O)C21CCN=N1 (stereo partly drawn)
> 100 µM

Measured values drawn from PubChem BioAssay (NCI) for this set.
